Listed below: pIC50 values for each entry.
Target: human renal renin (Homo sapiens)
Construct: human renal renin, free from acid proteolytic activity; from tissue
Sequence (P00797 67-406): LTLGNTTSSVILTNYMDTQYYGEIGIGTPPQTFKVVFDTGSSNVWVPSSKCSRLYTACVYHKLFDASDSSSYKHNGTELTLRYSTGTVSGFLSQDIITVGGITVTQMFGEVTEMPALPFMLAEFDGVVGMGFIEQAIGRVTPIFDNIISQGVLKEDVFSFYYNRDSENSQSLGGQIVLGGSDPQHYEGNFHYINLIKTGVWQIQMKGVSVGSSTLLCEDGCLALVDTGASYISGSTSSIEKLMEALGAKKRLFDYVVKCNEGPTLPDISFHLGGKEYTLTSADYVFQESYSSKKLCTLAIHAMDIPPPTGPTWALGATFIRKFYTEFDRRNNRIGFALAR
Assay: Inhibition of human renal renin in vitro; angiotensin I formed measured by radioimmunoassay
Type: biochemical
pIC50: −log10 of the molar value.

compound: CCOC(=O)N[C@@H](Cc1ccccc1)C(=O)N[C@@H](CC(C)C)C(=O)N[C@@H](CC1CCCCC1)[C@@H](O)[C@@H](O)CC(C)C
target or test system: human renal renin (Homo sapiens)
pIC50: 9.40
//
compound: CC(C)C[C@H](O)[C@H](O)[C@H](CC1CCCCC1)NC(=O)[C@H](Cc1c[nH]cn1)NC(=O)[C@H](Cc1ccccc1)NC(=O)c1ccc[nH]1
target or test system: human renal renin (Homo sapiens)
pIC50: 9.00
//
compound: COC(=O)C(CCCCC(=O)N[C@@H](Cc1ccc(OC)cc1)C(=O)N[C@@H](CC(C)C)C(=O)N[C@@H](CC1CCCCC1)[C@@H](O)[C@@H](O)CC(C)C)NC(=O)OCc1ccccc1 (some centres unmarked)
target or test system: human renal renin (Homo sapiens)
pIC50: 9.21
//
compound: CC(C)C[C@H](O)[C@H](O)[C@H](CC1CCCCC1)NC(=O)[C@H](Cc1c[nH]cn1)NC(=O)[C@H](Cc1ccccc1)NC(=O)COCC(=O)O
target or test system: human renal renin (Homo sapiens)
pIC50: 8.70
//
compound: CC(C)C[C@H](NC(=O)[C@H](Cc1ccccc1)NC(=O)OCC(O)CO)C(=O)N[C@@H](CC1CCCCC1)[C@@H](O)[C@@H](O)CC(C)C (some centres unmarked)
target or test system: human renal renin (Homo sapiens)
pIC50: 9.52

###

biological target: human renal renin (Homo sapiens); construct: human renal renin, free from acid proteolytic activity; from tissue; experiment: Inhibition of human renal renin in vitro; angiotensin I formed measured by radioimmunoassay; format: biochemical
Structures can show the parent of a compound that is named as a salt.

compound: COc1ccc(C[C@H](NC(=O)C2CCNCC2)C(=O)N[C@@H](Cc2c[nH]cn2)C(=O)N[C@@H](CC2CCCCC2)[C@@H](O)[C@@H](O)CC(C)C)cc1 [Example 179, Diacetic Acid Salt]
target or test system: human renal renin (Homo sapiens)
IC50 (nM): 1
--
compound: CC(C)C[C@H](O)[C@H](O)[C@H](CC1CCCCC1)NC(=O)[C@H](Cc1c[nH]cn1)NC(=O)[C@H](Cc1ccccc1)NC(=O)C1CCNCC1 [Example 68, Diacetic Acid Salt]
target or test system: human renal renin (Homo sapiens)
IC50 (nM): 1
--
compound: COc1ccc(C[C@H](NC(=O)CCCCCN)C(=O)N[C@@H](Cc2c[nH]cn2)C(=O)N[C@@H](CC2CCCCC2)[C@@H](O)[C@@H](O)CC(C)C)cc1 [Example 173, Diacetate Salt]
target or test system: human renal renin (Homo sapiens)
IC50 (nM): 0.9
--
compound: CC(C)C[C@H](O)[C@H](O)[C@H](CC1CCCCC1)NC(=O)[C@H](Cc1c[nH]cn1)NC(=O)[C@H](Cc1ccccc1)NC(=O)CCNC(=O)OCc1ccccc1
target or test system: human renal renin (Homo sapiens)
IC50 (nM): 0.55
--
compound: CC(=O)O[C@@H](Cc1ccccc1)C(=O)N[C@@H](Cc1c[nH]cn1)C(=O)N[C@@H](CC1CCCCC1)[C@@H](O)[C@@H](O)CC(C)C
target or test system: human renal renin (Homo sapiens)
IC50 (nM): 2
